- METHOD_SUMMARY: The compound was tested at a concentration of 1 uM for inhibitory activity against 17 beta-hydroxysteroid dehydrogenase from human placental microsomes
ASSAY_READOUT: inhibition (%)

Reference set (4 entries):
- COMPOUND: "C[C@]12CCC(=O)C=C1C(=O)CC1C2CC[C@@]2(C)C1CC[C@@]21CCC(=O)O1 (some centres undefined)"
  REPORTED: 3
- COMPOUND: "C[C@]12CC[C@@H]3c4ccc(O)cc4CC[C@H]3[C@@H]1CC[C@@]21CCC(=O)O1"
  REPORTED: 81
- COMPOUND: "C[C@]12CCC(=O)CC1CC[C@@H]1[C@@H]2CC[C@@]2(C)[C@H]1CC[C@@]21CCC(=O)O1 (some centres undefined)"
  REPORTED: 25
- COMPOUND: "C[C@]12CC[C@@]3(CCC(=O)O3)CC1CC[C@@H]1[C@@H]2CC[C@@]2(C)[C@H]1CC[C@@]21CCC(=O)O1 (some centres undefined)"
  REPORTED: 11

1. C[C@]12CC[C@@H]3c4ccc(OCc5ccccc5)cc4CC[C@H]3[C@@H]1CC[C@@]21CCC(=O)O1
2. C[C@]12CCC(=O)CC1C(=O)C[C@@H]1[C@@H]2CC[C@@]2(C)[C@H]1CC[C@@]21CCC(=O)O1 (some centres undefined)
3. COc1ccc2c(c1)CC[C@@H]1[C@@H]2CC[C@@]2(C)[C@H]1CC[C@@]21CCC(=O)O1
4. C[C@]12CCC(=O)C=C1CC[C@@H]1[C@@H]2CC[C@@]2(C)[C@H]1CC[C@@]21CCC(=O)O1
5. C[C@]12C=CC(=O)C=C1CCC1C2CC[C@@]2(C)C1CC[C@@]21CCC(=O)O1 (some centres undefined)
**Query** Exam item: list the entries in increasing order of inhibition. Please respond with the labels ordered as the question requires.
**Result** 4, 5, 1, 2, 3
